B1: VPS39 (parent)
chain: TTLLKCYLHTNVALVAPLLRLENN

# Variants of: B1
# TEST PROTOCOL: protein stability index of a GFP-peptide fusion (GPS, HEK-293T) (PSI 1-6); higher = more stable;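 note: lentivirally expressed fusions sorted by FACS into six bins by GFP to DsRed ratio, PSI derived from sequencing read proportions per bin multiplied by bin number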
# CONDITION SET: c terminus: a fixed tail appended
So basically: protein stability index at 3 or higher? That is true. Lower than 3? That is false.

*Q* State whether the measured protein stability index reaches 3, counting equality as reaching it, for `Y7N`
*A* false

*Q* Please check the record `E22R` and state if its protein stability index is at or above 3.
*A* false

*Q* Assess whether reported protein stability index for `V15P` sits at 3 or higher.
*A* true

*Q* # check: protein stability index of `C6T` is greater than or equal to 3
*A* false

*Q* Does `C6L` have a reported protein stability index of at least 3?
*A* true

*Q* Dear colleague, could you confirm whether `L14H` has protein stability index at or above 3?
*A* true

*Q* Please check the record `L21C` and state if its protein stability index is at or above 3.
*A* true

*Q* I'd appreciate it if you could say whether `R20V` has protein stability index at least equal to 3.
*A* false

*Q* Hi team, for `L4Q` , is the recorded protein stability index at or above 3?
*A* false

*Q* Test whether the variant `E22A` records protein stability index of 3 or higher.
*A* false

*Q* Form field: protein stability index at least 3? Entry: `L8C`
*A* false

*Q* State whether the measured protein stability index reaches 3, counting equality as reaching it, for `V15W`
*A* false

*Q* API: above_or_equal(metric=protein stability index, cutoff=3) for item `L18Y`
*A* false
